B1: library; numbered along this chain (parent)
chain: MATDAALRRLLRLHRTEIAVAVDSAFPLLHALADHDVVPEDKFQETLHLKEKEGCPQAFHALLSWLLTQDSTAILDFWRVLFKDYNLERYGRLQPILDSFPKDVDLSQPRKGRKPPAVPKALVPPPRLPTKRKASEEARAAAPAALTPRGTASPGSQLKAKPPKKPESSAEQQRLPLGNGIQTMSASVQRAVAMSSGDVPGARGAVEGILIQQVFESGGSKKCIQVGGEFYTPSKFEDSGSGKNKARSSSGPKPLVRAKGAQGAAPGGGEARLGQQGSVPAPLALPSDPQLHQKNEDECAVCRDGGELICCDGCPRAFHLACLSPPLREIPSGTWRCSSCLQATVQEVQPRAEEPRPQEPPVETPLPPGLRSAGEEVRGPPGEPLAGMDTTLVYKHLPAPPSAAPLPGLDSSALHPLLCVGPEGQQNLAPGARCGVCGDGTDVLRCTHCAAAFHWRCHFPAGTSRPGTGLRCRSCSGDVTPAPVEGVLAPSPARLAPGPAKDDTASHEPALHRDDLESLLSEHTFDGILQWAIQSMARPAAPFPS

- Variants of: B1
- Assay Explanation: AIRE transcriptional activation functional score (insulin promoter-GFP; nonsense median 0, synonymous median 1) (normalised score); higher = higher AIRE activity (more reporter activation)
- Study Conditions: with insulin promoter-GFP reporter in HEK293
Given measured AIRE transcriptional activation functional score, output condition met if it is greater than or equal to 0.8 and condition not met if not.

Answered cases to consult:
Mutation Key	Class
S287F	condition met
L66T	condition not met
A117V	condition not met

Answer whether AIRE transcriptional activation functional score of Q276C is greater than or equal to 0.8.
condition met

Answer whether AIRE transcriptional activation functional score of A373L is greater than or equal to 0.8.
condition not met

Answer whether AIRE transcriptional activation functional score of S153G is greater than or equal to 0.8.
condition met

Answer whether AIRE transcriptional activation functional score of D238A is greater than or equal to 0.8.
condition met

Answer whether AIRE transcriptional activation functional score of G313R is greater than or equal to 0.8.
condition not met

Answer whether AIRE transcriptional activation functional score of S411R is greater than or equal to 0.8.
condition met

Answer whether AIRE transcriptional activation functional score of L11V is greater than or equal to 0.8.
condition not met

Answer whether AIRE transcriptional activation functional score of L308S is greater than or equal to 0.8.
condition met

Answer whether AIRE transcriptional activation functional score of L75D is greater than or equal to 0.8.
condition not met

Answer whether AIRE transcriptional activation functional score of A373T is greater than or equal to 0.8.
condition met

Answer whether AIRE transcriptional activation functional score of L62Q is greater than or equal to 0.8.
condition not met

Answer whether AIRE transcriptional activation functional score of F543L is greater than or equal to 0.8.
condition not met
